Values compiled from the supplement of paper PMC9170038.

Test system: K4 kissing-loop RNA reporter;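 further: bound reporter read as fluorescence of individual clusters on recovered sequencing chips by microscopy, with normalized cluster intensities fitted with a binding model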
Assay: apparent KD of K4 kissing-loop reporter; higher = weaker reporter binding
Details: Eterna round: R107; input ligand: tryptophan 2.4 mM
# apparent KD of K4 kissing-loop reporter per record follows
Experimental endpoint: apparent KD of K4 kissing-loop reporter

1) AAGUGAUGUUGUAGUGAUGUUGUGAUGUUGCAGGAUAUAUAGUGAUGUAGAAGGGUAUGUACAGUUUUUUUUUUUGAGUGUUGAU [sscsmullin]: 66.2 nM
2) AAACGCUUGAAUAACAAGCGAAUAAAUUCGCGAGGACCGGUACGGCCGCCACUCGCUAACUGCGAGUGAUGUUCGAUAAUAAAAU [Mat - Mod of OpenEnded 3 - D14]: 95 nM
3) UUUUACGAGUGAUGUUCGUAAUGUAAUAGUUAGGAUAUCGUUUUUUCGAGAAGGAACUUCGAAGUGAUACGAAAGUAUCGCUUCG [FMN A 9]: 159 nM
